# protocol-details: Cytotoxicity, CellTiter-Glo, THP1-Blue cells
# Assay type: cell-based, human
# test-context: human, THP1-Blue cells; N.T. = no cytotoxicity at 50 µM; read-out: Cytotoxicity IC50 in THP1-Blue Cells
experimental-endpoint: IC50 at 24 h

{"compound": "COc1cccc(-n2ccc(=O)n(CC(=O)Nc3ccc(Br)cc3)c2=O)c1", "experimental-endpoint": "IC50 at 24 h", "result": "> 50 µM"}

Lab note: `COc1cccc(Cc2cc(C)nn(CCNC(=O)Nc3ccc(Br)cc3)c2=O)c1` gave IC50 at 24 h of > 50 µM

Lab note: `Cc1cc(Cc2ccc(C(F)(F)F)cc2)c(=O)n(CC(=O)Nc2ccc(Br)cc2)n1` gave IC50 at 24 h of 26.4 µM

Lab note: CC1CC(c2ccccc2)=NN(CC(=O)Nc2ccc(F)cc2)C1=O (stereo not shown) gave IC50 at 24 h of > 50 µM
